# ASSAYED SYSTEM: DA transporter (Rattus norvegicus)
# Sequence (P23977 whole entry): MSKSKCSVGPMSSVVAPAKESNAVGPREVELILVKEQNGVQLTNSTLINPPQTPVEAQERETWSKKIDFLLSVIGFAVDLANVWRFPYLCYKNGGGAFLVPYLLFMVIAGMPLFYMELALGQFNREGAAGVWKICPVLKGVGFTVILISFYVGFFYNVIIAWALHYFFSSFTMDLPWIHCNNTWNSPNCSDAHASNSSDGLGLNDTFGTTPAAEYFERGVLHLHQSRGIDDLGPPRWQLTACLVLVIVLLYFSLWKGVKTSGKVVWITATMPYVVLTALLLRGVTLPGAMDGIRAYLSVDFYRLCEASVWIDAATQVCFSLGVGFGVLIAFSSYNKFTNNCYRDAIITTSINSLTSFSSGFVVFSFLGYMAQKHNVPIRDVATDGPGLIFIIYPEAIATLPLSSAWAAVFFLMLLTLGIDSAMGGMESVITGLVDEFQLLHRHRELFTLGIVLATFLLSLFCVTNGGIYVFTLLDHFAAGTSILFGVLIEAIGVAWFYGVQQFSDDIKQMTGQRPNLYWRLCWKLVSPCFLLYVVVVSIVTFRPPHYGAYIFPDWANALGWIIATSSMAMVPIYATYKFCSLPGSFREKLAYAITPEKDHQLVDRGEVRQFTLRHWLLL
# TEST NAME: Binding at native DA transporter
# CONDITIONS: Table 7; native transporter, head prints r (rat); read-out: rDA Uptk Ki
Lab note - cut at 8 µM for Ki: Satisfied if strictly below, Not satisfied if not.

O=C1C(=Nc2ccc(C(F)(F)F)cc2)c2ccccc2N1c1ccccc1 [Example 95] :: Not satisfied

Input O=C1C(=Nc2ccc(Br)cc2)c2ccccc2N1c1ccccc1 [Example 98] ; condition: Ki strictly below 8 µM. Does it hold? Satisfied

Input O=C1C(=Nc2cccc(Cl)c2)c2ccccc2N1c1ccccc1 [Example 94] ; condition: Ki strictly below 8 µM. Does it hold? Satisfied

Input CN(CCc1c[nH]c2ccccc12)c1nc(Nc2ccc(F)c(F)c2)cc(N2CCCCC2)n1 [Example 15] ; condition: Ki strictly below 8 µM. Does it hold? Not satisfied

Input Cc1ccc(Nc2cc(N3CCCCC3)nc(N3CCN(c4ncccc4C(F)(F)F)CC3)n2)cc1 [Example 34] ; condition: Ki strictly below 8 µM. Does it hold? Satisfied
